# Assay System: IRAK4 protein in normal human PBMCs (Homo sapiens)
# Construct: host or cells: normal human PBMCs
# Assay Details: Degradation of IRAK4 protein in normal human PBMCs (AlphaLISA)
# Assay type: cell-based
# Recorded Conditions: 24 h incubation
Observed Property: log10 DC50 (log10 of the value in nM)
Plainly stated, the numbers are log10 of DC50 given in nM.

1. O=C1CCN(c2cc(C(=O)N3CCC(OCCCN4CCC(n5cc(NC(=O)c6cnn7ccc(N8C[C@H]9C[C@@H]8CO9)nc67)c(C(F)F)n5)CC4)CC3)ccc2Cl)C(=O)N1 [Example 31] = -0.08
2. O=C1CCN(c2cc(C(=O)N3CCC4(CCC(CN5CCC(n6cc(NC(=O)c7cnn8ccc(N9CCOCC9)nc78)c(C(F)F)n6)CC5)CC4)CC3)ccc2F)C(=O)N1 [Example 12] = -0.43

# query: log10 DC50 of entry O=C1CCN(c2cc(C(=O)N3CCC4(CCC(CN5CCC(n6cc(NC(=O)c7cnn8ccc(N9CCS(=O)(=O)CC9)nc78)c(C(F)F)n6)CC5)CC4)CC3)ccc2Cl)C(=O)N1 [Example 29]
-0.28

Quick one: log10 DC50 of Cc1ccc(C(=O)N2CCC3(CCC(CN4CCC(n5cc(NC(=O)c6cnn7ccc(N8C[C@H]9C[C@@H]8CO9)nc67)c(C(F)F)n5)CC4)CC3)CC2)cc1N1CCC(=O)NC1=O [Example 21] ?
-0.35

I am curious: what log10 DC50 value has been reported for COc1ccc(C(=O)N2CCC3(CCN(CCCN4CCC(n5cc(NC(=O)c6cnn7ccc(N8CCOCC8)nc67)c(C(F)F)n5)CC4)CC3)CC2)cc1N1CCC(=O)NC1=O [Example 28] ?
0.67

====

// reported IC50 per item
Sequence of the target: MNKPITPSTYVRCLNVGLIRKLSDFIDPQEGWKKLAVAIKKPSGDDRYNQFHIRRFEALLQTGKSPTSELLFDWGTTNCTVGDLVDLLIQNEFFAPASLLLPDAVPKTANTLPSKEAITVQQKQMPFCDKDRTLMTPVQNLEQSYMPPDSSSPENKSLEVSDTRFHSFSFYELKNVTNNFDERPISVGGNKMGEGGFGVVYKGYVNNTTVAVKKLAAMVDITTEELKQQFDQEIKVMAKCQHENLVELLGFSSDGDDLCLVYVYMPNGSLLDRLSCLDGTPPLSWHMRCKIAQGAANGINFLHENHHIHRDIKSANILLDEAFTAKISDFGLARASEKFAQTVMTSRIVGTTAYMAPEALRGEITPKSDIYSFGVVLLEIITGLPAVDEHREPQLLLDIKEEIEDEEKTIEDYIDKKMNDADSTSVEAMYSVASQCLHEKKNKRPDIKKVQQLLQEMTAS
The answer is to be given in nM; state only the numeric part.

Some entries whose results are on file:
1. CN(CCC1CCN(C(=O)c2ccc(Cl)c(N3CCC(=O)NC3=O)c2)CC1)C[C@H]1CC[C@H](n2cc(NC(=O)c3cnn4ccc(N5CC6CCC(C5)O6)nc34)c(C(F)F)n2)CC1 [Example 10] = 8.05
2. COc1cc2nn([C@H]3CC[C@](O)(COCC4CCN(C(=O)c5ccc(Cl)c(N6CCC(=O)NC6=O)c5)CC4)CC3)cc2cc1NC(=O)c1cccc(C(F)(F)F)n1 [Example 33] = 10.6
3. CN(CCC1CCN(C(=O)c2ccc(Cl)c(N3CCC(=O)NC3=O)c2)CC1)C[C@H]1CC[C@H](n2cc(NC(=O)c3cnn4ccc(N5CCC[C@H](N)C5)nc34)c(C(F)F)n2)CC1 [Example 18] = 7.86
4. COc1cc2nn([C@H]3CC[C@@](COCCC4CCN(C(=O)c5ccc(Cl)c(N6CCC(=O)NC6=O)c5)CC4)(OC)CC3)cc2cc1NC(=O)c1cccc(C(F)(F)F)n1 [Example 36] = 9.29

Shift focus to the following entry.
// returns reported IC50 for input CN(CCC1CCN(C(=O)c2ccc(Cl)c(N3CCC(=O)NC3=O)c2)CC1)C[C@H]1CC[C@H](n2cc(NC(=O)c3cnn4ccc(N5CCOCC5)nc34)c(C(F)F)n2)CC1 [Example 9]
4.64
